Biological target: Human Fc (human)
Experiment: ELISA; negative control
Readout type: optical density (OD)
// note: answer is a bare numeric in OD

366_B10 (antibody, V domains shown) VH: EVQLLESGGGLVQPGGSLRLSCAASGFTFSSYGMNWVRQAPGKGLEWVSGINYNSGYTSYADSVKGRFTISRDNSKNTLYLQMNSLRAEDTAVYYCARSANWHDTALDYWGQGTLVTVSS VL: DIQMTQSPSSLSASVGDRVTITCRASQSIISYLNWYQQKPGKAPKLLIYAATSRASGVPSRFSGSGSGTDFTLTISSLQPEDFATYYCQQSYDNPLTFGGGTKVEIK: 0.424
367_B06 (antibody, V domains shown) VH: EVQLLESGGGLVQPGGSLRLSCAASGFTFSSYSMNWVRQAPGKGLEWVANINYNGGYTGYADSVKGRFTISRDNSKNTLYLQMNSLRAEDTAVYYCARGATWHDTHLDYWGQGTLVTVSS VL: DIQMTQSPSSLSASVGDRVTITCRASQSIISYVNWYQQKPGKAPKLVIYAATSLHSGVPSRFSGSGSGTDFTLTISSLQPEDFATYYCQQSYNSPLTFGGGTKVEIK: 0.378
366_H08 (antibody, V domains shown) VH: EVQLLESGGGLVQPGGSLRLSCAASGFTFSDYGMNWVRQAPGKGLEWVASINYNSGYTSYADSVKGRFTISRDNSKNTLYLQMNSLRAEDTAVYYCARSANWHDTHLDYWGQGTLVTVSS VL: DIQMTQSPSSLSASVGDRVTITCRASQSILSYVNWYQQKPGKAPKLLIYAATSRHSGVPSRFSGSGSGTDFTLTISSLQPEDFATYYCQQSYNNPLTFGGGTKVEIK: 0.417
366_G09 (antibody, V domains shown) VH: EVQLLESGGGLVQPGGSLRLSCAASGFTFDDYSMNWVRQAPGKGLEWVASINYNSGYTGYADSVKGRFTISRDNSKNTLYLQMNSLRAEDTAVYYCARGATWHDTHLDYWGQGTLVTVSS VL: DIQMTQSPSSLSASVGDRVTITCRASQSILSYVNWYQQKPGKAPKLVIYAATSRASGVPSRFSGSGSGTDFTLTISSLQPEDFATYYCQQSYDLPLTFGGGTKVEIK: 0.291

Okay, next one:
input: So what does the record say about optical density for 370_D03 (antibody, V domains shown) VH: EVQLLESGGGLVQPGGSLRLSCAASGFTFSSYSMNWVRQAPGKGLEWVASINYNGGYTSYADSVKGRFTISRDNSKNTLYLQMNSLRAEDTAVYYCARGATWHDTHLDYWGQGTLVTVSS VL: DIQMTQSPSSLSASVGDRVTITCRASQSIITYLNWYQQKPGKAPKLLIYAATSRASGVPSRFSGSGSGTDFTLTISSLQPEDFATYYCQQSYDLPLTFGGGTKVEIK ?
output: 0.57
